- assayedTarget: DOXP reductoisomerase from Helicobacter pylori (Helicobacter pylori)
- Construct: made in house; host or cells: Helicobacter pylori (so in the source)
- protocol: DOXP reductoisomerase inhibition (NADPH oxidation at 365 nm)
- Assay type: biochemical
- details: recombinant enzyme; 0.3 mM NADPH, 1 mM DOXP, pH 7.5; read-out: IC50 (nM) of DOXP reductoisomerase from Helicobacter pylori
readoutLabel: IC50 (nM)
Number in nM, nothing else.

Which IC50 is reported for this molecule? CP(C)(=O)CNCN(O)C(=O)c1ccccc1 [Compound 2]
60

Please give the measured IC50 for this molecule: CN(CC(=O)P(C)(C)=O)CN(O)C(=O)C(F)(F)F [Compound 7]
300

I am curious: what IC50 value has been reported for CCCC(=O)N(O)C(C)N(C)CC(O)P(C)(C)=O (stereo not drawn) [Compound 1] ?
80

###

- assayedTarget: DOXP reductoisomerase from Helicobacter pylori (Helicobacter pylori, UniProt P56139)
- Construct: made in house; host or cells: Helicobacter pylori (so in the source)
- Sequence (P56139 whole entry): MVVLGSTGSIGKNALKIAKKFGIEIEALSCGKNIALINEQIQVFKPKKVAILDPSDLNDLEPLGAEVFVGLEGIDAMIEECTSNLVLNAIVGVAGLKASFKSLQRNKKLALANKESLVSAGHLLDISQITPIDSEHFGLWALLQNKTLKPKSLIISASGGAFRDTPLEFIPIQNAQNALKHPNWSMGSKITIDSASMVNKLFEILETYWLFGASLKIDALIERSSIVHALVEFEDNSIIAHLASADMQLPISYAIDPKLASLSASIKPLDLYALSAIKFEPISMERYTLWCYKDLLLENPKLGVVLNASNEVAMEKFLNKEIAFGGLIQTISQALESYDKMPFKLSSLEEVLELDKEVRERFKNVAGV
- protocol: DOXP reductoisomerase inhibition (NADPH oxidation at 365 nm)
- Assay type: biochemical
- Method: The DOXP reductoisomerase of Helicobacter pylori was expressed as a recombinant protein in Helicobacter pylori. The activity of DOXP reductoisomerase was determined in a batch containing 100 mM tris-HCl (pH=7.5), 1 mM MnCl2, 0.3 mM NADPH and 1 mM DOXP. The oxidation of NADPH was here measured at 365 nm in a spectrophotometer. The inhibition studies were performed by measuring the activity of DOXP reductoisomerase in the presence of compounds 1 to 8 (see page 5) at various concentrations between 0. […]
Counter-ions that a name gives are not always drawn.
readoutLabel: IC50 (µM)
Express the result in µM but write the number alone.

Some compounds with known IC50 results, for comparison:
[[record]]
compound = "CP(=O)(CNCN(O)C(=O)CCCN1CCOCC1)Oc1ccccc1 (stereo not shown)"
assayedtarget = "DOXP reductoisomerase from Helicobacter pylori (Helicobacter pylori, UniProt P56139)"
reportedresult = 0.11

[[record]]
compound = "CN(CN(O)C(=O)C1CCCCC1)CP(C)(=O)O [Compound 3, sodium salt]"
assayedtarget = "DOXP reductoisomerase from Helicobacter pylori (Helicobacter pylori, UniProt P56139)"
reportedresult = 0.17

[[record]]
compound = "O=CN(O)CNCP(=O)(O)O"
assayedtarget = "DOXP reductoisomerase from Helicobacter pylori (Helicobacter pylori, UniProt P56139)"
reportedresult = 0.06


Continue with the compound presented below.
Which IC50 value belongs to CP(=O)(O)C(O)CNCN(O)C(=O)c1ccco1 (stereo not shown) [Compound 5, sodium salt] ?
0.13
